Please go through the items and note down their pKi.
# target: human Factor XIa (Homo sapiens (Human), UniProt P03951)
# Sequence (P03951 388-625): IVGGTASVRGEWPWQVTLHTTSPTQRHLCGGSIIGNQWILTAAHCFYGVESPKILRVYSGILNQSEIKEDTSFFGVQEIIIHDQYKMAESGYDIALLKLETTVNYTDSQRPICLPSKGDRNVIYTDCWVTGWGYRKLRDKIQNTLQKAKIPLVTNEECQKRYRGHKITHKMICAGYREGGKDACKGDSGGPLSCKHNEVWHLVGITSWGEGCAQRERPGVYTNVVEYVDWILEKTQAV
# Sequence (P03951 19-387 partner): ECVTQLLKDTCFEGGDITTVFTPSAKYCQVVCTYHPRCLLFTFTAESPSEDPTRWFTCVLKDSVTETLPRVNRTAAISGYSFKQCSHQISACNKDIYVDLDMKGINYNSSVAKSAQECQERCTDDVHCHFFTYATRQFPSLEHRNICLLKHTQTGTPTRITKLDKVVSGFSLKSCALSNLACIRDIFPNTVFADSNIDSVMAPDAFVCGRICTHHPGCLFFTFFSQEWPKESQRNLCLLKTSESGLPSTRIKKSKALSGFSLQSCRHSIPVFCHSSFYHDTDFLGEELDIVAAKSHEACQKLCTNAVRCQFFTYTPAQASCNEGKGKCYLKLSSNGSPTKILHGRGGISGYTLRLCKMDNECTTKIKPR
# protocolSummary: Factor XIa Assay
# Type: biochemical
# studyConditions: purified human Factor XIa 40 pM, Z-Gly-Pro-Arg-AFC 100 μM, pH 7.4; read-out: FXIa Ki
Give only the number. pKi is defined as minus log10 of concentration in molar units.

Input COC(=O)Nc1ccc(C(=O)N[C@@H](Cc2ccccc2)C(=O)N2CCC[C@@]3(C2)OC(=O)Nc2ccc(C4CC4)c(F)c23)cc1 . Output pKi: 7.43

Reported pKi ( COC(=O)Nc1ccc(-c2c[nH]c([C@H](Cc3ccccc3)C(=O)N3CC[C@]4(C3)OC(=O)Nc3ccc(Cl)cc34)n2)cc1 [Example 122b] ) = 5.33

// recorded pKi for O=C1Nc2ccc(Cl)cc2[C@@]2(CCCN(C(=O)C(Cc3ccc(F)cc3)c3nc4ccc(C(=O)O)cc4[nH]3)C2)O1 (single isomer, unassigned) [Example 132A (isomer B)] : 6.35

// pKi lookup, molecule = COC(=O)Nc1ccc(C(=O)N[C@@H](CC2CC2)C(=O)N2CCC[C@@]3(C2)OC(=O)Nc2ccc(C)cc23)cc1 , result: 7.52

Please fill in: pKi reported for O=C(Nc1ccc(C(=O)O)cc1)N[C@@H](Cc1ccccc1)C(=O)N1CCC2(C1)OC(=O)Nc1ccc(Cl)cc12 (stereo partly drawn) = 5.30
